Biological target: human CYP11B2 (Homo sapiens)
Construct: expressed in transfected cells
Sequence (P19099 25-503): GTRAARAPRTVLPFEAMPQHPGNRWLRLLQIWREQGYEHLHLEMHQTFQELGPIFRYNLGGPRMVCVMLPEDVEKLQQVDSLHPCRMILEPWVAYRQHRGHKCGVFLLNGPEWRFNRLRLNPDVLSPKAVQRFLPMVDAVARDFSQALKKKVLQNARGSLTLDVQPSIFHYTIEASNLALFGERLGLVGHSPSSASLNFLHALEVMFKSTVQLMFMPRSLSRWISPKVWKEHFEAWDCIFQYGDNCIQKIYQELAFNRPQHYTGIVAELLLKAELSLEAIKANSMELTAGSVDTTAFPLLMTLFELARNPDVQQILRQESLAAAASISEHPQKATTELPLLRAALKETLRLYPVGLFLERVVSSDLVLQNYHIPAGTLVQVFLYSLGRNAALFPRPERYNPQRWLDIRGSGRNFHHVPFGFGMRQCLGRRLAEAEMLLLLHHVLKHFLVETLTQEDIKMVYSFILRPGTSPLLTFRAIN
Assay: IC50 vs CYP11B2 by measurement of aldosterone synthesis in V79 cells
Format: cell-based
Settings: V79 cells expressing human CYP11B2, 750 nM DOC, aldosterone HTRF
Property measured: IC50

Query string: Recorded IC50 of CO[C@@H]1CN(C2CCN(C(=O)c3cncn3[C@@H](C)c3ccccc3-c3ccc(F)cc3)CC2)CC[C@@H]1O [Compound 12] , please.
Result string: > 50 µM

Query string: Next record, please: C[C@@H](c1ccccc1-c1ccc(F)cc1)n1cncc1C(=O)N1CC[C@@H](N2CCNC(=O)C2)[C@@H](F)C1 [Compound 30]
Result string: 41.5 µM

Query string: Next record, please: C[C@@H](c1ccccc1C(C)(C)F)n1cncc1C(=O)N1CCC2NCCO[C@@H]2C1 (stereo partly drawn) [Compound 46]
Result string: 23.1 µM

Query string: Next record, please: C[C@@H](c1ccccc1-c1ccccc1)n1cncc1C(=O)N1CCC2NCCO[C@@H]2C1 (stereo partly drawn) [Compound 34]
Result string: > 50 µM

Query string: Next record, please: CCc1nnc2n1CCN(C(=O)c1cncn1[C@@H](C)c1ccccc1-c1ccc(F)cc1)C2 [Compound 7]
Result string: > 50 µM

Query string: Next record, please: C[C@@H](c1ccccc1-c1ccc(F)cc1)n1cncc1C(=O)N1CCC(N2CCn3ncnc3C2)CC1 [Compound 27]
Result string: 23.9 µM

Query string: Next record, please: C[C@@H](c1ccccc1-c1ccc(F)cc1)n1cncc1C(=O)N1CCC(N2CCc3nccnc3C2)CC1 [Compound 28]
Result string: > 50 µM

Query string: Next record, please: CO[C@H]1CN(C2CCN(C(=O)c3cncn3[C@@H](C)c3ccccc3-c3ccc(F)cc3)CC2)CC[C@H]1O [Compound 11]
Result string: > 50 µM

Query string: Next record, please: C[C@@H](c1ccccc1-c1ccc(F)cc1)n1cncc1C(=O)N1CCC(N2CC[C@H](O)[C@@H](F)C2)CC1 [Compound 13]
Result string: > 50 µM

Query string: Next record, please: C[C@@H](c1ccccc1CN1CCC(F)CC1)n1cncc1C(=O)N1CCC2NCCO[C@@H]2C1 (stereo partly drawn) [Compound 45]
Result string: > 50 µM

Query string: Next record, please: C[C@H]1CN(C(=O)c2cncn2[C@@H](C)c2ccccc2-c2ccc(F)cc2)CC[C@H]1N1CCNC(=O)C1 [Compound 31]
Result string: > 50 µM

Query string: Next record, please: C[C@@H]1CN(C2CCN(C(=O)c3cncn3[C@@H](C)c3ccccc3-c3ccc(F)cc3)CC2)CC[C@@H]1O [Compound 17]
Result string: 31.6 µM

Query string: Next record, please: C[C@@H](c1ccccc1-c1ccc(F)cc1)n1cncc1C(=O)N1CCC[C@H]2OCCN[C@@H]2C1 [Compound 52]
Result string: > 50 µM

Query string: Next record, please: COc1ccccc1-c1ccccc1[C@H](C)n1cncc1C(=O)N1CCC2NCCO[C@@H]2C1 (stereo partly drawn) [Compound 44]
Result string: > 50 µM

Query string: Next record, please: C[C@@H](c1ccccc1-c1ccc(F)cc1)n1cncc1C(=O)N1CCC[C@@H]2OCCN[C@H]2C1 [Compound 53]
Result string: > 50 µM

* * *

Target: human CYP11B2 (Homo sapiens, UniProt P19099)
Assay: IC50 vs CYP11B2 by measurement of aldosterone synthesis in V79 cells
Conditions: V79 cells expressing human CYP11B2, 750 nM DOC, aldosterone HTRF
Provide the recorded IC50 for the entries that follow.
Note: unit µM is implicit; provide only the numeric part.

Query string: Recorded IC50 of C[C@@H](c1ccccc1-c1ccc(F)cc1)n1cncc1C(=O)N1CCC(F)(CN2CCOCC2)CC1 , please.
Result string: 36.3

Query string: Next record, please: CO[C@H]1CN(C(=O)c2cncn2[C@@H](C)c2ccccc2-c2ccc(F)cc2)CC[C@@H]1N1CCOC1=O
Result string: 23.6

Query string: Next record, please: C[C@@H](c1ccccc1C1CCCC1)n1cncc1C(=O)N1CCC2NCCO[C@@H]2C1 (stereo partly drawn)
Result string: 15.5

Query string: Next record, please: CC(C)c1ccccc1[C@H](C)n1cncc1C(=O)N1CCC2NCCO[C@@H]2C1 (stereo partly drawn)
Result string: 9.02

* * *

Provide the recorded pIC50 for the entries that follow.
Biological target: CYP1A2 (Homo sapiens, UniProt P05177)
Sequence (P05177 1-516): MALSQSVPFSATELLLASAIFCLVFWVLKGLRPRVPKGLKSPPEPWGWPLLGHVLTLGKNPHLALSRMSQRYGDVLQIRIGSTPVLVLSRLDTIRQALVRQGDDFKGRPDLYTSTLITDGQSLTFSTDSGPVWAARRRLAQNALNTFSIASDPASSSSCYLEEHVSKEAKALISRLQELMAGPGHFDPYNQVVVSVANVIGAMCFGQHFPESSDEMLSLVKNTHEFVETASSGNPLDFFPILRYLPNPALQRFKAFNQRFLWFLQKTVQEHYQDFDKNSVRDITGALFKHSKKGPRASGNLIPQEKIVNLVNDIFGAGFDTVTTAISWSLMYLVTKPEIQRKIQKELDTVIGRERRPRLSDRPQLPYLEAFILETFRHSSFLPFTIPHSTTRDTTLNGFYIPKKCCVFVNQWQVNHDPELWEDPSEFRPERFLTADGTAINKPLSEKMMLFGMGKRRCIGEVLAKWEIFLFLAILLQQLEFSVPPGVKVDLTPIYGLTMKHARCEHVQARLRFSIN
pIC50: −log10 of the molar value.

Query string: Recorded pIC50 of C[C@@H]1CN(C2CCN(C(=O)c3cncn3[C@@H](C)c3ccccc3-c3ccc(F)cc3)CC2)CC[C@H]1O , please.
Result string: < 5.00

Query string: Next record, please: CCOc1ncccc1-c1ccccc1[C@H](C)n1cncc1C(=O)N1CCC2NCCO[C@@H]2C1 (stereo partly drawn)
Result string: < 5.00

Query string: Next record, please: C[C@@H](c1ccccc1-c1ccc(F)cc1)n1cncc1C(=O)N1CCC(F)(CN2CCOCC2)CC1
Result string: < 5.00

Query string: Next record, please: C[C@@H](c1ccccc1C(C)(C)F)n1cncc1C(=O)N1CCC2NCCO[C@@H]2C1 (stereo partly drawn)
Result string: < 5.00

Query string: Next record, please: C[C@@H](c1ccccc1-c1ccc(F)cc1F)n1cncc1C(=O)N1CCC2NCCO[C@@H]2C1 (stereo partly drawn)
Result string: < 5.00

Query string: Next record, please: C[C@@H](c1ccccc1-c1ccc(F)cc1)n1cncc1C(=O)N1CCC(N2CCC(O)CC2)CC1
Result string: < 5.00

Query string: Next record, please: C[C@@H](c1ccccc1-c1ccc(F)cc1)n1cncc1C(=O)N1CCC(N2CCn3c(nnc3C(F)(F)F)C2)CC1
Result string: < 5.00

Query string: Next record, please: C[C@@H](c1ccccc1-c1ccc(F)cc1)n1cncc1C(=O)N1CC[C@@H](N2CCNC(=O)C2)[C@@H](F)C1
Result string: < 5.00

Query string: Next record, please: C[C@@H](c1ccccc1-c1ccccc1OC(F)(F)F)n1cncc1C(=O)N1CCC2NCCO[C@@H]2C1 (stereo partly drawn)
Result string: < 5.00

Query string: Next record, please: C[C@@H](c1ccccc1-c1ccc(F)cc1)n1cncc1C(=O)N1CCC(N2CCNC(=O)CC2)CC1
Result string: < 5.00

Query string: Next record, please: C[C@@H](c1ccccc1-c1cccc2c1OCC2)n1cncc1C(=O)N1CCC2NCCO[C@@H]2C1 (stereo partly drawn)
Result string: < 5.00

Query string: Next record, please: C[C@@H](c1ccccc1-c1ccc(F)cc1)n1cncc1C(=O)N1CCC(NC2CCC(O)CC2)CC1 (stereo partly drawn)
Result string: < 5.00

Query string: Next record, please: C[C@@H](c1ccccc1-c1ccc(F)cc1)n1cncc1C(=O)N1CCC(N2CCc3nccnc3C2)CC1
Result string: < 5.00

Query string: Next record, please: C[C@@H]1CN(C2CCN(C(=O)c3cncn3[C@@H](C)c3ccccc3-c3ccc(F)cc3)CC2)CC[C@@H]1O
Result string: < 5.00

Query string: Next record, please: C[C@@H](c1ccccc1-c1ccc(Cl)nc1)n1cncc1C(=O)N1CCC2NCCO[C@@H]2C1 (stereo partly drawn)
Result string: < 5.00

Query string: Next record, please: COc1ccccc1-c1ccccc1[C@H](C)n1cncc1C(=O)N1CCC2NCCO[C@@H]2C1 (stereo partly drawn)
Result string: < 5.00

Query string: Next record, please: C[C@@H](c1ccccc1-c1ccc(F)cc1)n1cncc1C(=O)N1CCC(N2CC[C@@H](O)[C@H](F)C2)CC1
Result string: < 5.00

Query string: Next record, please: C[C@@H](c1ccccc1-c1ccc(F)cc1)n1cncc1C(=O)N1CCC2NC(=O)COC2(C)C1 (stereo partly drawn)
Result string: < 5.00

Query string: Next record, please: CO[C@@H]1CN(C2CCN(C(=O)c3cncn3[C@@H](C)c3ccccc3-c3ccc(F)cc3)CC2)C[C@H]1O
Result string: < 5.00

Query string: Next record, please: CO[C@H]1CN(C(=O)c2cncn2[C@@H](C)c2ccccc2-c2ccc(F)cc2)CC[C@@H]1N1CCOC1=O
Result string: < 5.00

Query string: Next record, please: C[C@@H](c1ccccc1-c1ccc(F)cc1)n1cncc1C(=O)N1CCC(N2C[C@@H](O)[C@H](F)C2)CC1
Result string: < 5.00

Query string: Next record, please: C[C@H]1CN(C(=O)c2cncn2[C@@H](C)c2ccccc2-c2ccc(F)cc2)CC[C@H]1N1CCNC(=O)C1
Result string: < 5.00

Query string: Next record, please: C[C@@H](c1ccccc1-c1ccc(F)cc1)n1cncc1C(=O)N1CC[C@H]2NCCO[C@@H]2C1
Result string: < 5.00

Query string: Next record, please: CC(C)c1ccccc1[C@H](C)n1cncc1C(=O)N1CCC2NCCO[C@@H]2C1 (stereo partly drawn)
Result string: < 5.00

The reported measurements were obtained from patent US9981969B2.
